Where do the numbers come from? From ChEMBL document CHEMBL1201862.

System: NCI-H23
method-description: NCI tumour cell line growth inhibition, 48 h
Activity calls are given as the source filed them. No stated cut-off is given here; in the data, active = GI50 up to about 1.1 µM and inactive = higher.

>  <compound>
COc1ccc2c(c1)C(=O)C1CC(=O)CCC21 (stereo not given)

>  <GI50>
> 100 µM (inactive)

$$$$
>  <compound>
CCn1c(O)c(C(=O)NC(C)c2ccc([N+](=O)[O-])cc2)c(=O)n(CC)c1=S (stereo not given)

>  <GI50>
1.77 µM (inactive)

$$$$
>  <compound>
CC1=CC=C2C(C)(C)CC[C@@H]3OC(=O)[C@H]1[C@]23C

>  <GI50>
> 100 µM (inactive)

$$$$
>  <compound>
O=C(N/N=C/c1ccccc1)c1cccc2nc3ccccc3nc12

>  <GI50>
6.07 µM (inactive)

$$$$
>  <compound>
Cc1c(/C=C2\CC/C(=C\c3[nH]c(C(=O)OC(C)(C)C)c(C)c3C)C2=O)[nH]c(C(=O)OC(C)(C)C)c1C

>  <GI50>
> 100 µM (inactive)

$$$$

---

Tested on: OVCAR-8
method-description: NCI tumour cell line growth inhibition, 48 h
Calls of active or inactive are those of the source. Cut-off read from the data, not from the text of the source: active = GI50 up to about 1.1 µM and inactive = higher.
Labels: TRUE (active), FALSE (inactive)

>  <compound>
CCOC(=O)C[C@@]12CCCNC1(C)CCc1ccccc12 (stereo partly drawn)

>  <test-system>
OVCAR-8

>  <group>
FALSE

$$$$
>  <compound>
O=C(O)c1c([N+](=O)[O-])cc(C(F)(F)F)cc1[N+](=O)[O-]

>  <test-system>
OVCAR-8

>  <group>
FALSE

$$$$
>  <compound>
CCOC(=O)c1cn(Cc2ccccc2)c(=O)n1Cc1ccccc1

>  <test-system>
OVCAR-8

>  <group>
FALSE

$$$$
>  <compound>
O=c1c2cc(I)ccc2nc(-c2cccs2)n1O

>  <test-system>
OVCAR-8

>  <group>
FALSE

$$$$
>  <compound>
C[C@]12[C@@H]3CC[C@H]1[C@@H](O)C(=O)N2CC3

>  <test-system>
OVCAR-8

>  <group>
FALSE

$$$$
>  <compound>
CCOC(=O)CC(C)C1(C(=O)OCC)CCCCC1=O (stereo not drawn)

>  <test-system>
OVCAR-8

>  <group>
FALSE

$$$$
>  <compound>
O=C(C(=C(I)I)c1ccccc1)c1ccccc1

>  <test-system>
OVCAR-8

>  <group>
FALSE

$$$$
>  <compound>
CC1(Br)Cc2ccccc2C1=O (stereo not drawn)

>  <test-system>
OVCAR-8

>  <group>
FALSE

$$$$
>  <compound>
CC[C@@]1(O)C(=O)OCc2c1cc1n(c2=O)Cc2c-1nc1ccccc1c2/C=N\NC(=O)C(C)N (stereo partly drawn)

>  <test-system>
OVCAR-8

>  <group>
TRUE

$$$$
>  <compound>
NCC1Nc2ccccc2[C@@H](O)C1O (stereo partly drawn)

>  <test-system>
OVCAR-8

>  <group>
FALSE

$$$$
>  <compound>
CCOC(=O)c1cn(CC)c2ccc3c(c2c1=O)S(=O)(=O)C=C3

>  <test-system>
OVCAR-8

>  <group>
FALSE

$$$$
>  <compound>
O=C(Nc1ccccc1)Oc1ccccc1C1CCCCC1

>  <test-system>
OVCAR-8

>  <group>
FALSE

$$$$
>  <compound>
CCCCCCCc1cscc1-c1cscc1Br

>  <test-system>
OVCAR-8

>  <group>
FALSE

$$$$
>  <compound>
O=c1cc(-c2ccccc2F)[nH]c2cc3c(cc12)OCO3

>  <test-system>
OVCAR-8

>  <group>
TRUE

$$$$
>  <compound>
Cn1c(=O)n(-c2c3ccccc3c(Cl)c3ccccc23)n(C(C)(C)C)c1=O

>  <test-system>
OVCAR-8

>  <group>
FALSE

$$$$
>  <compound>
CN1CC2=C(N=C(S)NC2c2ccccc2Cl)/C(=C/c2ccccc2Cl)C1 (stereo not drawn)

>  <test-system>
OVCAR-8

>  <group>
FALSE

$$$$
>  <compound>
COC(=O)C1CC2CCC1(O[Si](C(C)C)(C(C)C)C(C)C)C(O)C2 (stereo not drawn)

>  <test-system>
OVCAR-8

>  <group>
FALSE

$$$$
>  <compound>
O=C1CCCC/C1=C\c1ccc([N+](=O)[O-])cc1

>  <test-system>
OVCAR-8

>  <group>
FALSE

$$$$
>  <compound>
O=C1C=C(OCCCl)C(=O)c2c(O)ccc(O)c21

>  <test-system>
OVCAR-8

>  <group>
FALSE

$$$$
>  <compound>
CC(C)C(=O)Cc1ccc2ccccc2n1

>  <test-system>
OVCAR-8

>  <group>
FALSE

$$$$
>  <compound>
CC#CCCCC1(C)CCCNC1=S (stereo not drawn)

>  <test-system>
OVCAR-8

>  <group>
FALSE

$$$$
>  <compound>
O=S(=O)(O)CCS

>  <test-system>
OVCAR-8

>  <group>
FALSE

$$$$
>  <compound>
C[C@H](NS(=O)(=O)c1ccc(NC(=O)c2ccccc2)cc1)C(=O)O

>  <test-system>
OVCAR-8

>  <group>
FALSE

$$$$
>  <compound>
C=C(CCC/C(C)=C/C=C/[C@@H](C)CCCc1ccoc1)C[C@@H]1OC(=O)[C@H](C)[C@@H]1O

>  <test-system>
OVCAR-8

>  <group>
FALSE

$$$$
>  <compound>
Cc1nn(C(=O)c2ccncc2)c2c1C(c1cccc([N+](=O)[O-])c1)SC(=N)N2 (stereo not drawn)

>  <test-system>
OVCAR-8

>  <group>
FALSE

$$$$
>  <compound>
O=C1/C(=C/c2ccccc2[N+](=O)[O-])N=C(c2ccccc2)N1C1Nc2cc3c(cc2S1)NC(N1C(=O)/C(=C/c2ccccc2[N+](=O)[O-])N=C1c1ccccc1)S3 (stereo not drawn)

>  <test-system>
OVCAR-8

>  <group>
FALSE

$$$$
>  <compound>
O=[N+]([O-])C(=C1Nc2ccccc2N1)C(Cl)=C(Cl)Cl

>  <test-system>
OVCAR-8

>  <group>
FALSE

$$$$
>  <compound>
COc1ccccc1NC1=NCC(C)S1 (stereo not drawn)

>  <test-system>
OVCAR-8

>  <group>
FALSE

$$$$
>  <compound>
O=C(O)C(NCc1ccccc1)C(NCc1ccccc1)C(=O)O (stereo not drawn)

>  <test-system>
OVCAR-8

>  <group>
FALSE

$$$$
>  <compound>
C=C1C(=O)OC2C1CC(O)/C(C)=C\CCC1(C)OC21 (stereo not drawn)

>  <test-system>
OVCAR-8

>  <group>
FALSE

$$$$
>  <compound>
O=C1/C(=C/c2cccs2)N=C(c2ccccc2)N1c1nc2ccccc2s1

>  <test-system>
OVCAR-8

>  <group>
FALSE

$$$$
>  <compound>
CCOC(=O)C1C(=O)CC1(C)C (stereo not drawn)

>  <test-system>
OVCAR-8

>  <group>
FALSE

$$$$
>  <compound>
CCOC(=O)Cc1cc(OC)c(OC)cc1/C(Cl)=C(\CO)c1ccc(OC)c(OC)c1

>  <test-system>
OVCAR-8

>  <group>
FALSE

$$$$

---

Test system: CCRF-CEM
method-description: NCI tumour cell line growth inhibition, 48 h
The source made the active and inactive calls. Cut-off read from the data, not from the text of the source: active = GI50 up to about 1.1 µM and inactive = higher.
Labels: active, inactive

>  <compound>
COC1(OC)CC2C(=O)N(Cc3ccccc3)C1C(S(=O)(=O)c1ccccc1)C2S(=O)(=O)c1ccccc1 (configuration not stated)

>  <group>
inactive

$$$$
>  <compound>
Nc1ccc(Oc2ccc(C3(c4ccc(Oc5ccc(N)c(O)c5)cc4)C4CC5C6CC7CC5C3C(C7)C6C4)cc2)cc1O

>  <group>
inactive

$$$$
>  <compound>
O=[N+]([O-])c1ccc(/C=C\c2ccc3c(c2)OCO3)c([N+](=O)[O-])c1

>  <group>
inactive

$$$$
>  <compound>
COC1Cc2c(C)c(OC(C)=O)c3cccnc3c2O1 (configuration not stated)

>  <group>
inactive

$$$$
>  <compound>
Cn1c(=O)n(-c2c3ccccc3c(Cl)c3ccccc23)n(C(C)(C)C)c1=O

>  <group>
inactive

$$$$
>  <compound>
CCCCNc1nc(N)nc(Nc2ccc(Br)cc2)c1N=O

>  <group>
inactive

$$$$
>  <compound>
Brc1cc(CCOC2CCCCO2)c(-c2sccc2CCOC2CCCCO2)s1 (configuration not stated)

>  <group>
inactive

$$$$
>  <compound>
Cc1[nH]n(-c2ccccc2)c(=O)c1C(N(CCc1ccccc1)C1=NCC(C)S1)(C(F)(F)F)C(F)(F)F (configuration not stated)

>  <group>
inactive

$$$$
>  <compound>
CC[C@@]1(O)C(=O)OCc2c1cc1n(c2=O)Cc2c-1nc1ccccc1c2/C=N\NC(=O)C(C)N (some centres not stated)

>  <group>
active

$$$$
>  <compound>
S=C=NCCc1ccccc1 [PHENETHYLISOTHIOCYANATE]

>  <group>
active

$$$$
>  <compound>
O=C(CBr)NCCc1c[nH]c2ccccc12

>  <group>
active

$$$$
>  <compound>
C#CCN(Cc1ccc2nc(-c3ccccc3)c(Cl)nc2c1)c1ccc(F)cc1

>  <group>
inactive

$$$$
>  <compound>
C1CN(C23OC4(N5CCOCC5)C5C6CC(C7C6C4C72)C53)CCO1 (configuration not stated)

>  <group>
inactive

$$$$
>  <compound>
NCC1Nc2ccccc2[C@@H](O)C1O (some centres not stated)

>  <group>
inactive

$$$$
>  <compound>
CCOC(=O)C[C@@]12CCCNC1(C)CCc1ccccc12 (some centres not stated)

>  <group>
inactive

$$$$
>  <compound>
COc1ccc2c(c1)OC(c1ccccc1O)CC2=O (configuration not stated)

>  <group>
inactive

$$$$
>  <compound>
CCN1CCCC(C#N)(c2ccccc2)CC1 (configuration not stated)

>  <group>
inactive

$$$$
